- measurement protocol: Pharmacokinetics of almonertinib in rats, alone and after multiple doses of rivaroxaban or apixaban
- Assay type: in vivo, Sprague-Dawley (SD) rats
- test settings: male, Sprague-Dawley, rat, plasma, po, 15 mg/kg, rats, oral almonertinib 15 mg/kg after rivaroxaban 2 mg/kg for five days (group 9), mean ± SD, n = 6; read-out: t1/2z (converted)
metric: half-life (h)
Give the value, in units of h, as a plain number.

Exam item: Entry C=CC(=O)Nc1cc(Nc2nccc(-c3cn(C4CC4)c4ccccc34)n2)c(OC)cc1N(C)CCN(C)C [almonertinib, Almonertinib] has what half-life?
Marked response: 2.7

----------
- measurement protocol: Pharmacokinetics of almonertinib in rats, alone and after multiple doses of rivaroxaban or apixaban
- Format: in vivo, Sprague-Dawley (SD) rats
- test settings: male, Sprague-Dawley, rat, plasma, po, 15 mg/kg, rats, oral almonertinib 15 mg/kg alone (group 4, control solvent of apixaban), mean ± SD, n = 6; read-out: Vz/F
metric: Vd/F (L/kg)
Give the value, in units of L/kg, as a plain number.

Exam item: Entry C=CC(=O)Nc1cc(Nc2nccc(-c3cn(C4CC4)c4ccccc34)n2)c(OC)cc1N(C)CCN(C)C [almonertinib, Almonertinib] has what Vd/F?
Marked response: 383

----------
- measurement protocol: Pharmacokinetics of almonertinib in rats, alone and after multiple doses of rivaroxaban or apixaban
- Format: in vivo, Sprague-Dawley (SD) rats
- test settings: male, Sprague-Dawley, rat, plasma, po, 15 mg/kg, rats, oral almonertinib 15 mg/kg after apixaban 0.5 mg/kg for five days (group 10), mean ± SD, n = 6; read-out: Vz/F
metric: Vd/F (L/kg)
Give the value, in units of L/kg, as a plain number.

Exam item: Entry `C=CC(=O)Nc1cc(Nc2nccc(-c3cn(C4CC4)c4ccccc34)n2)c(OC)cc1N(C)CCN(C)C` has what Vd/F?
Marked response: 522

----------
- measurement protocol: Pharmacokinetics of apixaban in rats, alone and after multiple doses of almonertinib
- Format: in vivo, Sprague-Dawley (SD) rats
- test settings: male, Sprague-Dawley, rat, plasma, po, 0.5 mg/kg, rats, oral apixaban 0.5 mg/kg alone (group 2), mean ± SD, n = 6
metric: Cmax
Enter the number, and then the unit.

Exam item: Entry COc1ccc(-n2nc(C(N)=O)c3c2C(=O)N(c2ccc(N4CCCCC4=O)cc2)CC3)cc1 [apixaban, Apixaban] has what Cmax?
Marked response: 202 ng/mL

----------
- measurement protocol: Pharmacokinetics of rivaroxaban in rats, alone and after multiple doses of almonertinib
- Type: in vivo, Sprague-Dawley (SD) rats
- test settings: male, Sprague-Dawley, rat, plasma, po, 2 mg/kg, rats, oral rivaroxaban 2 mg/kg alone (group 1), mean ± SD, n = 6
metric: Cmax (ng/mL)
Give the value, in units of ng/mL, as a plain number.

Exam item: Entry `O=C(NC[C@H]1CN(c2ccc(N3CCOCC3=O)cc2)C(=O)O1)c1ccc(Cl)s1` has what Cmax?
Marked response: 200

----------
- measurement protocol: Pharmacokinetics of apixaban in rats, alone and after multiple doses of almonertinib
- Format: in vivo, Sprague-Dawley (SD) rats
- test settings: male, Sprague-Dawley, rat, plasma, po, 0.5 mg/kg, rats, oral apixaban 0.5 mg/kg alone (group 2), mean ± SD, n = 6; read-out: MRT0-∞
metric: MRT inf (h)
Give the value, in units of h, as a plain number.

Exam item: Entry `COc1ccc(-n2nc(C(N)=O)c3c2C(=O)N(c2ccc(N4CCCCC4=O)cc2)CC3)cc1` has what MRT inf?
Marked response: 2.42

Cited source for all entries: paper PMC10582335
